Value source: patent EP0633316A1

ASSAYED_TARGET: PepN (Lactobacillus delbrueckii subsp. lactis)
Construct: made in house; host or cells: E. coli CM89 (pepN-deficient) harbouring plasmid pUK13
Sequence (P37896 whole entry): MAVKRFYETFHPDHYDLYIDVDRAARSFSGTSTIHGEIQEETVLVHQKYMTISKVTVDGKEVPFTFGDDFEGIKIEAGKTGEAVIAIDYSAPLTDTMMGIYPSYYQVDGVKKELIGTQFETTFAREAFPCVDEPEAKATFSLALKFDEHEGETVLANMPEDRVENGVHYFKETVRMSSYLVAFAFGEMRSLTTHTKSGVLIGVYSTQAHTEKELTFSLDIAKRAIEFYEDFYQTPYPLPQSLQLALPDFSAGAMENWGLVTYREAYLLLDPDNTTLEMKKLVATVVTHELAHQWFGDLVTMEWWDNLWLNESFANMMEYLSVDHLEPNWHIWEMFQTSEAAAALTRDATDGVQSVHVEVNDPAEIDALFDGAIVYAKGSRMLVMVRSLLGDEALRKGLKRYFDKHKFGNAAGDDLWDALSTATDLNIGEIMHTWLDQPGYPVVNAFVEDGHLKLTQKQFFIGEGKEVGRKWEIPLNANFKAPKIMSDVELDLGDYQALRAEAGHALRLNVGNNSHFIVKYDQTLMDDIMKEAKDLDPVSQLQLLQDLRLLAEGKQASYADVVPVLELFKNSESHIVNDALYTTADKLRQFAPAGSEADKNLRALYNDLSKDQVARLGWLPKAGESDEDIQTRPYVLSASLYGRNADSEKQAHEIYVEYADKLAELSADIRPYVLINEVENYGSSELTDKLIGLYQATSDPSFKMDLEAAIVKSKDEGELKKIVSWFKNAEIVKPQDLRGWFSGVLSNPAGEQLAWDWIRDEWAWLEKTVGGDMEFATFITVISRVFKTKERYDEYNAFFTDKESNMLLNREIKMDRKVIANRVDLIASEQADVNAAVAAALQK
RUN_DESCRIPTION: biochemical
Type: biochemical, Lactobacillus delbrückii ssp. lactis
CONDITION: PMSF 1 mM, pepstatin A 1 µg/ml, E-64 0.1 mM, 1,10-phenanthroline or EDTA 1 mM; 30 min at 37°C; substrate lys-p-nitroanilide
Non-standard residues stand in square brackets, D forms with d. Residues, ends and D or L forms follow the SMILES beside them. *: point of attachment. Sta = CC(C)C[C@H](N)[C@@H](O)CC(=O)O; Isovaleryl = CC(C)CC(=O)*
MEASUREMENT_TYPE: effect on enzyme activity

COMPOUND	MEASUREMENT_TYPE	RESULT
CC(C)CC(NC(=O)C1OC1C(=O)O)C(=O)NCCCCN=C(N)N (stereo not shown)	effect on enzyme activity	no effect
O=S(=O)(F)Cc1ccccc1 [PMSF, phenylmethansulphonyl fluoride]	effect on enzyme activity	no effect
CC(C)CC(=O)N[C@H](C(=O)N[C@H](C(=O)N[C@@H](CC(C)C)[C@@H](O)CC(=O)N[C@@H](C)C(=O)N[C@@H](CC(C)C)[C@@H](O)CC(=O)O)C(C)C)C(C)C [Pepstatin A, pepstatin A] (Isovaleryl-VV[Sta]A[Sta]-OH)	effect on enzyme activity	no effect
